All figures here come from patent US12398154B2.

Molecular target: KRas G12A (Homo sapiens, UniProt P01116, G12A);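 note: binding to KRas measured by TR-FRET displacement after one hour at room temperature, IC50 from a four-parameter fit of percent-of-control values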
Sequence (P01116 1-169 isoform P01116-2 G12A): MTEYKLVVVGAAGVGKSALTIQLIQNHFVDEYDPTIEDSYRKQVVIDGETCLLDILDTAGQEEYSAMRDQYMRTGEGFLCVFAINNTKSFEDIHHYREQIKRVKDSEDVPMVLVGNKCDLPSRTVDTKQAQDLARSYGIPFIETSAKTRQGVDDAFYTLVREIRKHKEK
Assay: biochemical
Quantity Kind: IC50 (µM)

Consider the following illustrative entries.
[
  {
    "Molecule": "Fc1c(-c2cccc3cccc(F)c23)ncc2c(N3CC(n4cncn4)C3)nc(OCC34CCCN3CCC4)nc12",
    "Unit": "µM",
    "Result Number": 3.03
  },
  {
    "Molecule": "O=c1ccc(CNc2nc(OCC34CCCN3CCC4)nc3c(F)c(-c4cccc5cccc(F)c45)ncc23)c[nH]1",
    "Unit": "µM",
    "Result Number": 2.5
  }
]

[A] Fc1c(-c2cccc3cccc(F)c23)ncc2c(NCc3cnn4cccnc34)nc(OCC34CCCN3CCC4)nc12
[B] O=C1NC(=O)C2(CCCCN(c3nc(OCC45CCCN4CCC5)nc4c(F)c(-c5cccc6cccc(F)c56)ncc34)C2)N1 (stereo not shown)
[C] Fc1c(-c2cccc3cccc(F)c23)ncc2c(N3CCCC(c4cc[nH]n4)C3)nc(OCC34CCCN3CCC4)nc12 (stereo not shown)
[D] CCc1cccc2cccc(-c3ncc4c(NCc5cccnc5N)nc(OCC56CCCN5CCC6)nc4c3F)c12
Put the entries in order of IC50, starting with the largest number. // format: requested-order list of labels
A, C, B, D

====

System: pERK in PSN1 cells
Assay: Inhibition of KRas phosphorylation of ERK (Cisbio HTRF pERK assay)
Conditions: Homo sapiens, PSN1, 3 h, read-out: Inhibition (HTRF IC50) of KRas-mediated Phosphorylation of ERK, PSN1
pIC50: −log10 of the molar value.
Quantity Kind: pIC50

[1] CCc1c(F)ccc2cc(O)cc(-c3ncc4c(N5CCC[C@@](C)(O)C5)nc(OCC5(CN(C)C)CC5)nc4c3F)c12 [Example 316]
[2] CCc1c(F)ccc2cc(O)cc(-c3ncc4c(N5C[C@@H](C)C[C@@H](O)C5)nc(OC[C@@]56CCCN5C[C@H](F)C6)nc4c3F)c12 [Example 180]
[3] CCc1c(F)ccc2cc(O)cc(-c3ncc4c(N5CCC[C@@H](O)C5)nc(OC[C@@]56CCCN5C[C@H](F)C6)nc4c3F)c12 [Example 193]
Sort these molecules on pIC50 so the largest reading comes first. Enter labels, ranked according to the request.
1, 3, 2

====

Tested on: pERK in ASPC1 cells
Assay: Inhibition of KRas phosphorylation of ERK (Cisbio HTRF pERK assay)
Conditions: Homo sapiens, ASPC1, read-out: Inhibition (HTRF IC50) of KRas-mediated Phosphorylation of ERK, AsPC-1
Quantity Kind: IC50 (nM)

[A] O=S1(=O)NCC2(CCCN(c3nc(OC[C@@]45CCCN4C[C@H](F)C5)nc4c(F)c(-c5cc(O)cc6ccc(F)c(Cl)c56)ncc34)C2)N1 (stereo partly drawn)
[B] C#Cc1c(F)ccc2cc(O)cc(-c3ncc4c(NCc5c[nH]c6ncccc56)nc(OC[C@@]56CCCN5C[C@H](F)C6)nc4c3F)c12
[C] CCc1c(F)ccc2cc(O)cc(-c3ncc4c(N5CCCC6(C5)NC(=O)NC6=O)nc(OC[C@@]56CCCN5C[C@H](F)C6)nc4c3F)c12 (stereo partly drawn)
[D] OCC1COCCN(c2nc(OC[C@@]34CCCN3C[C@H](F)C4)nc3c(F)c(-c4cc(O)cc5ccc(F)c(Cl)c45)ncc23)C1 (stereo partly drawn)
[E] CCc1c(F)ccc2cc(O)cc(-c3ncc4c(N5CCCn6nc(C(=O)N7CCOCC7)cc6C5)nc(OC[C@@]56CCCN5C[C@H](F)C6)nc4c3F)c12
Consider the compounds listed above. Rank them by IC50 in ascending numerical order. Respond with an ordered listing of the labels, as requested.
E, B, C, A, D
